kon by entry:
Target: full-length VAR2CSA recombinant protein (3D7-DBL1X-6ε) (Plasmodium falciparum 3D7, UniProt Q8I639, strain)
Experiment: SPR
Measurement Type: kon (M⁻¹ s⁻¹)

Binder: VHH859 (VHH) VHH: QVQLQESGGGLVQAGGSLRLSCAASGRTFSSYAMGWFRQAPGKEREFVAAISWNGSSTYYADSVKGRFTISRDNAKNTVYLQMNSLKPEDTAVYYCAANDLLVPELLMSRVEVYDYWGQGTQVTVSS
Measurement Type: kon
Readout Unit: M⁻¹ s⁻¹
Numeric Result: 12000

Binder: VHH883 (VHH) VHH: QVQLQESGGGLVQAGGSLRLSCAASGRTFSSYAMGWFRQAPGKEREFVAAISWSGDTTYYADSVKGRFTISRDNAKNTVSLQMNSLKPEDTAVYYCAANDLMVPALLMPRLESYDYWGQGTQVTVSS
Measurement Type: kon
Readout Unit: M⁻¹ s⁻¹
Numeric Result: 170000

Binder: VHH871 (VHH) VHH: QVQLQESGGGLVQAGGSLRLSCAASGSIFSIHAMGWYRQAPGKQRELVAAITSGGSTNYGDSVKGRFTISEDNAKNTVYLQMNGLKPEDTAVYYCAADNDGLGYVYWGQGTQVTVSS
Measurement Type: kon
Readout Unit: M⁻¹ s⁻¹
Numeric Result: 216

Binder: VHH863 (VHH) VHH: QVQLQESGGGLVQTGGSLRLSCAASGRTFMDYVMGWFRQAPGKEREFVASISWTDSTRYTDSVKGRFTASRDDAEATVYLQMNNLQFEDTAVYYCARGAGRGHSVSAGDYVYWGQGTQVTVSS
Measurement Type: kon
Readout Unit: M⁻¹ s⁻¹
Numeric Result: 31000

Binder: VHH889 (VHH) VHH: QVQLQESGGGLVQAGGSLRLSCAASGRSFSSYAMGWFRQAPGKEREFVATITWSGGSTYYADSVKGRFTISGDSAENTVYLQMNSLKPEDTAVYYCAADETSAPLYRAYEAQYDYWGQGTQVTVSS
Measurement Type: kon
Readout Unit: M⁻¹ s⁻¹
Numeric Result: 54000

Binder: VHH867 (VHH) VHH: QVQLQESGGGLVQAGGSLRLSCAASGFTLDDYGIGWFRQAPGKEREGVSFISSSDGTTDYADSVKGRFTISSDNAKNTVYLQMNSLKPEDTAVYYCAAVEQRVPFLSVLHEAIYDYWGQGTQVTVSS
Measurement Type: kon
Readout Unit: M⁻¹ s⁻¹
Numeric Result: 8690

Binder: VHH891 (VHH) VHH: QVQLQESGGGLVQTGDSLRLSCAASGRTFSSYAMGWFRQAPGKEREFVAAITWGDGSADYADSVKGRFTISRDNAENTVYLQMNSLKPEDTAVYYCAAETVGAPIYTLGYSEAYDYWGQGTQVTVSS
Measurement Type: kon
Readout Unit: M⁻¹ s⁻¹
Numeric Result: 2050

Binder: VHH860 (VHH) VHH: QVQLQESGGGLVQAGGSLRLSCAASGRAFSDYAMGWFRQAPGKERDFVAAISWNGGNTYYSDSVKGRFTISRDNAENTVYLQMNSLKPEDTAVYYCAANDLAVPELLMPRVETYDYWGQGTQVTVSS
Measurement Type: kon
Readout Unit: M⁻¹ s⁻¹
Numeric Result: 46000
